System: primary human mesenchymal stem cells (hMSCs)
Assay: Induction of chondrogenesis in hMSCs (nodule count, Rhodamine B/Nile Red)
Format: cell-based
Conditions: 6 days, relative to TGF-β3 (10 ng/mL) positive control, read-out: Max. Activity as % TGF-β3 activity
// values below are reported Emax
Readout: Emax (%)

molecule=Fc1cccc(-c2cncc3[nH]c(-c4n[nH]c5cnc(-c6cccnc6)cc45)cc23)c1 readout=Emax endpoint_unit=% measurement=64
molecule=CC(C)Nc1cncc(-c2cc3c(-c4cc5c(-c6cc(F)cc(CNS(C)(=O)=O)c6)cncc5[nH]4)n[nH]c3cn2)c1 readout=Emax endpoint_unit=% measurement=17
molecule=CC(C)(C)C(=O)Nc1cncc(-c2cc3c(-c4cc5c(-c6ccncc6)cncc5[nH]4)n[nH]c3cn2)c1 readout=Emax endpoint_unit=% measurement=30
molecule=Nc1cncc(-c2cc3c(-c4cc5c(-c6ccccc6F)cncc5[nH]4)n[nH]c3cn2)c1 readout=Emax endpoint_unit=% measurement=16
molecule=Nc1cncc(-c2cc3c(-c4cc5c(N6CCCCC6)cncc5[nH]4)n[nH]c3cn2)c1 readout=Emax endpoint_unit=% measurement=94
molecule=CS(=O)(=O)NCc1cc(F)cc(-c2cncc3[nH]c(-c4n[nH]c5cnc(-c6cncc(NC(=O)C7CCC7)c6)cc45)cc23)c1 readout=Emax endpoint_unit=% measurement=15

====

Test system: primary human mesenchymal stem cells (hMSCs)
Assay: Induction of chondrogenesis in hMSCs (nodule count, Rhodamine B/Nile Red)
Type: cell-based
Details: 6 days, relative to TGF-β3 (10 ng/mL) positive control, read-out: Max. Activity as % TGF-β3 activity
Readout: Emax (%)

molecule=FC1(F)CCN(Cc2cncc(-c3cc4c(-c5cc6c(-c7cccnc7)cncc6[nH]5)n[nH]c4cn3)c2)C1 test_target="primary human mesenchymal stem cells (hMSCs)" endpoint_unit=% measurement=54
molecule=CCNCc1cncc(-c2cc3c(-c4cc5c(-c6cccnc6)cncc5[nH]4)n[nH]c3cn2)c1 test_target="primary human mesenchymal stem cells (hMSCs)" endpoint_unit=% measurement=68
molecule=CN(C)Cc1cncc(-c2cc3c(-c4cc5c(-c6ccncc6)cncc5[nH]4)n[nH]c3cn2)c1 test_target="primary human mesenchymal stem cells (hMSCs)" endpoint_unit=% measurement=52
molecule=Fc1cccc(-c2cncc3[nH]c(-c4n[nH]c5cnc(-c6cncc(CN7CCCC7)c6)cc45)cc23)c1 test_target="primary human mesenchymal stem cells (hMSCs)" endpoint_unit=% measurement=81
molecule=CS(=O)(=O)NCc1cc(F)cc(-c2cncc3[nH]c(-c4n[nH]c5cnc(-c6cncc(CN7CCCC7)c6)cc45)cc23)c1 test_target="primary human mesenchymal stem cells (hMSCs)" endpoint_unit=% measurement=8
molecule=CCNCc1cncc(-c2cc3c(-c4cc5c(-c6ccccc6F)cncc5[nH]4)n[nH]c3cn2)c1 test_target="primary human mesenchymal stem cells (hMSCs)" endpoint_unit=% measurement=21
molecule=CC(C)CC(=O)Nc1cncc(-c2cc3c(-c4cc5c(-c6cc(F)cc(CNS(C)(=O)=O)c6)cncc5[nH]4)n[nH]c3cn2)c1 test_target="primary human mesenchymal stem cells (hMSCs)" endpoint_unit=% measurement=24
